target: Kv11.1 (hERG) ion channel (Homo sapiens (Human))
Sequence (Q12809 whole entry): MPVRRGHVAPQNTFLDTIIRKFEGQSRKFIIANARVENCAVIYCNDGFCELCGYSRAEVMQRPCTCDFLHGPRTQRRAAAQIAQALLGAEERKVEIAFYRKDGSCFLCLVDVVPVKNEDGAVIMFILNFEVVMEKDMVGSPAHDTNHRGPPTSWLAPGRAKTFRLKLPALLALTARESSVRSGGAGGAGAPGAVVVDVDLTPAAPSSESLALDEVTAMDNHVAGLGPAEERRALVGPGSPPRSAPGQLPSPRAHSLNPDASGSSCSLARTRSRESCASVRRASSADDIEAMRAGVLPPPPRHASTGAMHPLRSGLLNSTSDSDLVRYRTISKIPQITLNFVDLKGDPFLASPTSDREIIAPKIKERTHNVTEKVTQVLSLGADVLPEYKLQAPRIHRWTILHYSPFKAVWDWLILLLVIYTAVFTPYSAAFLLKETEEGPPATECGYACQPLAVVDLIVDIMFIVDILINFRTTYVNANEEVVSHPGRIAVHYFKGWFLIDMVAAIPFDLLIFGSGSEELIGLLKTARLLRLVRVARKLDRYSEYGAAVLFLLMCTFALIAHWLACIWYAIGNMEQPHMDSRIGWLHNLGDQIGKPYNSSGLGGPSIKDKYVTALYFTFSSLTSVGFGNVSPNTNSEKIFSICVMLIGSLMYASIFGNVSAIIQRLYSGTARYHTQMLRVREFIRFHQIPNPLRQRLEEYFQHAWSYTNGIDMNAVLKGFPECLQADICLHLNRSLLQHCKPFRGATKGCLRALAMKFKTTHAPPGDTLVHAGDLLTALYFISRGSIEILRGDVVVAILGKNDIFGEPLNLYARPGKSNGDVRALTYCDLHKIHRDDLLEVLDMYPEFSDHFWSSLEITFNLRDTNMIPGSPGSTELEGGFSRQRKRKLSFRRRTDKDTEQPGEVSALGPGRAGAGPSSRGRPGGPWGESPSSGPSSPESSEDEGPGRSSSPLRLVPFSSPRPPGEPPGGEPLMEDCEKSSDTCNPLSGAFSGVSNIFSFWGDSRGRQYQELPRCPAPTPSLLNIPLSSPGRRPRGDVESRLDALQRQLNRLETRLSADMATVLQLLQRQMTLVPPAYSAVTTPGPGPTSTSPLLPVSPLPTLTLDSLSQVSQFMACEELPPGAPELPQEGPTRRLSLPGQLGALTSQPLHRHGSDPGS
assay-info: hERG patch clamp in Kv11.1 transfected HEK293 cells
assay-metric: Ki

Query: For Cc1c(N2CCC3(CC2)Cc2ccccc2[C@H]3N)nc(C)n(-c2cccc(Cl)c2Cl)c1=O [Compound 74a] , write its Ki.
Reply: 1200 nM

Query: For Cc1c(N2CCC3(CC2)Cc2ncccc2[C@H]3N)nc(C)n(-c2cccc(Cl)c2Cl)c1=O (single isomer, unassigned) [Compound 66b] , write its Ki.
Reply: 7500 nM

Query: For Cc1nc(N2CCC3(CC2)CO[C@@H](C)[C@H]3N)c(CO)nc1-c1cccc(Cl)c1Cl [RMC-4550, reference compound] , write its Ki.
Reply: 600 nM

Query: For Cc1c(N2CCC3(CC2)Cc2ccccc2[C@H]3N)nc(N)n(-c2cccc(Cl)c2Cl)c1=O [Compound 117] , write its Ki.
Reply: 2500 nM

Query: For Cc1c(N2CCC3(CC2)CO[C@@H](C)[C@H]3N)nc(C)n(-c2cccc(Cl)c2Cl)c1=O (single isomer, unassigned) [Compound 23b] , write its Ki.
Reply: > 10000 nM
